# method.notes: IAM chromatography on new IAM.PC.DD2 columns (gradient HPLC, CHI (IAM))
# Type: physicochemical
# Design: key: CHI (IAM) from retention times calibrated to predefined CHI standards
# conditions: new IAM.PC.DD2 column batch P20511-014-3, pH 7.4
P20511-014-3 CHI (IAM) values by entry
// return just the number, without any unit appended

Reference set (3 entries):
>  <molecule>
CC(CCc1ccccc1)NCC(O)c1ccc(O)c(C(N)=O)c1 (stereo not drawn)

>  <P20511-014-3 CHI (IAM)>
37.48

$$$$
>  <molecule>
CC(=O)CCCCn1c(=O)c2c(ncn2C)n(C)c1=O

>  <P20511-014-3 CHI (IAM)>
13.87

$$$$
>  <molecule>
O=c1n(CCCN2CCN(c3cccc(Cl)c3)CC2)nc2ccccn12

>  <P20511-014-3 CHI (IAM)>
33.86

$$$$

Kindly consider the entry below.
Request: Can you look up the measured P20511-014-3 CHI (IAM) of CCN(CC)CCNC(=O)c1ccc(N)cc1 [Procainamide] for me?
Response: 11.89

###

# method.notes: IAM chromatography on new IAM.PC.DD2 columns (gradient HPLC, CHI (IAM))
# Type: physicochemical
# conditions: system suitability test compounds
# Experimental: The IAM binding was measured using IAM.PC.DD2 HPLC columns (Regis Technologies, Inc., IL, USA) with dimensions of 100 x 4.6 mm, particle size 10 μm with 300 Å pore size. Two batches of IAM.PC.DD2 columns were studied (R20511-014-3 and P20511-014-3) that had been prepared using the new batches of silica support. […]
reported.endpoint: CHI (IAM) deviation between reference and new IAM.PC.DD2 columns

As a guide, the following entries are already answered.
>  <compound>
CN(C)CCCN1c2ccccc2CCc2ccccc21

>  <recorded.result>
> 5 CHI (IAM) unit

$$$$
>  <compound>
COC(=O)C1=C(C)NC(C)=C(C(=O)OCCN(C)Cc2ccccc2)C1c1cccc([N+](=O)[O-])c1 (centres unmarked)

>  <recorded.result>
very similar

$$$$
>  <compound>
CN(C)CCCN1c2ccccc2Sc2ccc(Cl)cc21

>  <recorded.result>
> 5 CHI (IAM) unit

$$$$
>  <compound>
CC(C(=O)O)c1cccc(C(=O)c2ccccc2)c1 (centres unmarked)

>  <recorded.result>
very similar

$$$$

Request: Requested field: CHI (IAM) deviation between reference and new IAM.PC.DD2 columns. Item: COc1ccc2c(c1)c(CC(=O)O)c(C)n2C(=O)c1ccc(Cl)cc1
Response: very similar

###

# method.notes: IAM chromatography on new IAM.PC.DD2 columns (gradient HPLC, CHI (IAM))
# Type: physicochemical
# conditions: constant values of the calibration set; CHI IAM converted to octanol/water lipophilicity scale by equation 7
A collection of compounds and their measured log K (IAM)
Respond numerically, and do not add a unit to the figure.

>  <compound>
CCCCCC(=O)c1ccccc1 [Hexanophenone]

>  <log K (IAM)>
3.71

$$$$

Here is another compound to look at.
Request: Quick one: log K (IAM) of CCC(=O)c1ccccc1 [Propiophenone] ?
Response: 2.15

###

# target: human serum albumin (HSA) (Homo sapiens, UniProt P02768)
# Sequence (P02768 25-609): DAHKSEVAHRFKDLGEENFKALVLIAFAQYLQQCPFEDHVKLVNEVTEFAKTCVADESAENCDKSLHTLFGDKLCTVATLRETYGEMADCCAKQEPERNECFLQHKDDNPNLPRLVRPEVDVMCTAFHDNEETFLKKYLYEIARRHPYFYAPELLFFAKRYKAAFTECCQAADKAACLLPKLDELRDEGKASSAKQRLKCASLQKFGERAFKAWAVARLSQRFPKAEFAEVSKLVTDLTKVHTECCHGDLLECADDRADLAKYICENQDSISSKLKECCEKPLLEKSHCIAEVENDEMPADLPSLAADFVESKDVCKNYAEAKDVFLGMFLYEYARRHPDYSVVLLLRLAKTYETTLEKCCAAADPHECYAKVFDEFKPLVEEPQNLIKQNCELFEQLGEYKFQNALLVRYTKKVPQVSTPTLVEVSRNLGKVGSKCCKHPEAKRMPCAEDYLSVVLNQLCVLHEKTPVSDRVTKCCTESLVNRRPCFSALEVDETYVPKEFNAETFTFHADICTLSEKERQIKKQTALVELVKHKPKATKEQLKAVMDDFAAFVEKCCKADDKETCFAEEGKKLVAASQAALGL
# method.notes: Protein binding on chemically bonded HSA column (Chiralpak-HSA)
# conditions: remeasured in this study, pH 7.4
reported.endpoint: log K HSA
// return just the number, without any unit appended

>  <molecule>
Cc1noc(NS(=O)(=O)c2ccc(N)cc2)c1C

>  <log K HSA>
3.68

$$$$
>  <molecule>
Cc1cc(C)nc(NS(=O)(=O)c2ccc(N)cc2)n1

>  <log K HSA>
1.72

$$$$

Request: Can you share its log K HSA? I mean this molecule: COc1ccc2cc(CCC(C)=O)ccc2c1
Response: 2.14

Request: # iterate: Cn1c(=O)c2c(ncn2CC(O)CO)n(C)c1=O (stereo not drawn)
Response: 4.24

Request: CC(C)NCC(O)COc1cccc2ccccc12 (stereo not drawn)
Response: 1.02
